assay-name: Toxicity liver stage against HepG2, at 10uM
Format: cell-based
Set-up: test concentration 10 uM, cell line HepG2-A16-CD81EGFP
cond: human, HepG2-A16-CD81EGFP cells; read-out: INHIBITION
Property: cytotoxicity at 10 µM; scope: individual compounds
Quick note: give the figure in %, leave out the unit.

{"compound": "NC(=O)CN1CCCC(c2nccnc2Oc2cccc(F)c2)C1 (centres undefined)", "endpoint-unit": "%", "cytotoxicity at 10 µM": -17.1}
{"compound": "O=C(NCCc1ccncc1)c1cccc(S(=O)(=O)NC2CCOC2)c1 (centres undefined)", "endpoint-unit": "%", "cytotoxicity at 10 µM": 4.93}
{"compound": "CN(C)CCn1c2c(ccc1=O)CC(NC(=O)c1ccsc1)CC2 (centres undefined)", "endpoint-unit": "%", "cytotoxicity at 10 µM": 2.15}
{"compound": "CCOC(=O)c1sc2ccsc2c1CNC(=O)CCOC", "endpoint-unit": "%", "cytotoxicity at 10 µM": -16.7}
{"compound": "CS(=O)(=O)N1CCOCC2(CCN(C(=O)c3cnccn3)CC2)C1", "endpoint-unit": "%", "cytotoxicity at 10 µM": -0.152}
{"compound": "COc1cccc(CN2CCOC(Cn3nc(C)cc3C)C2)c1 (centres undefined)", "endpoint-unit": "%", "cytotoxicity at 10 µM": 7.83}

So for "Cc1ccc(C)c2c(C)c(C(=O)NCCC(=O)N3CCOCC3)oc12" , the logged cytotoxicity at 10 µM turned out to be 1.04

For this compound ( Cc1ccccc1CCNC(=O)N1CCCC(c2nncn2C)C1 (centres undefined) ), measured cytotoxicity at 10 µM is -29.8

# compound "C[C@@H]1CN(c2nc3c(cc2C(N)=O)CCC3)C[C@@]1(O)C1CCC1" ; its cytotoxicity at 10 µM = -3.98

The measured values listed here are drawn from ChEMBL document CHEMBL4513216.
